molecular target: human TrkA receptor (Homo sapiens, UniProt P04629); assay: DiscoverX PathHunter TrkA functional assay (NGF-stimulated U2OS cells); conditions: U2OS cells expressing human TrkA-PK, Shc1-EA and p75NTR; compound 1 h, then NGF at ~80% of maximal response for 3 h; luminescence
Sequence (P04629 33-796): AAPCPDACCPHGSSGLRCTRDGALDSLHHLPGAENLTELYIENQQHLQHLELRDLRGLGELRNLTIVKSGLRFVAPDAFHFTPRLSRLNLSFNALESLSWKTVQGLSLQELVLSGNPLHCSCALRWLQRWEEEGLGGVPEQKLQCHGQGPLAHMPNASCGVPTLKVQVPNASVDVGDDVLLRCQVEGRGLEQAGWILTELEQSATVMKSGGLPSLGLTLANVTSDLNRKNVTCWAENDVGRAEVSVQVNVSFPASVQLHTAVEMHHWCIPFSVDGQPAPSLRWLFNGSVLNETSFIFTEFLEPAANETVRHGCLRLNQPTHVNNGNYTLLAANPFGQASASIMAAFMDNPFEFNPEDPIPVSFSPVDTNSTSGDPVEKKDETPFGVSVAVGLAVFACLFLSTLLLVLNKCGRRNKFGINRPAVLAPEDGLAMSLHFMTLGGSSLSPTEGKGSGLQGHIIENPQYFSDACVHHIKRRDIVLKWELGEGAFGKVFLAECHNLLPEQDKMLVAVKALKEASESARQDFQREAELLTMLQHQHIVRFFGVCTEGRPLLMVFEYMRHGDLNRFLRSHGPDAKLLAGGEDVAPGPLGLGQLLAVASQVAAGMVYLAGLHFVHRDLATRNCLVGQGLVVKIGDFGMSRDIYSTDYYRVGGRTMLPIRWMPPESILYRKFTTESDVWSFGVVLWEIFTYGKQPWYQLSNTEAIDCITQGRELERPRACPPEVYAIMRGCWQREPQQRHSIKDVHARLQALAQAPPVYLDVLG
measured_attribute: pIC50
API: returns pIC50 as number; meaning -log10 of concentration in mol/L.

Past entries and their recorded results:
{"smiles_string": "CC(=O)NCc1ccn2c(NC(=O)c3ccc(C(F)(F)F)c(-c4ccn(C)n4)c3)c(-c3ccccc3)nc2c1", "pIC50": 8.09}
{"smiles_string": "Cn1ccc(-c2cc(C(=O)Nc3c(-c4ccccc4)nc4ccc(CN5CC(F)C5)cn34)ccc2C(F)(F)F)n1", "pIC50": 8.06}
{"smiles_string": "Cn1ccc(-c2cc(C(=O)Nc3c(-c4ccncc4)nc4ccccn34)c(Cl)cc2C(F)(F)F)n1", "pIC50": 8.70}
{"smiles_string": "CN(C)C(=O)c1ccn2c(NC(=O)c3ccc(C(F)(F)F)c(-c4ccn(C)n4)c3)c(-c3ccccc3)nc2c1", "pIC50": 8.89}
{"smiles_string": "Cn1ccc(-c2cc(C(=O)Nc3c(-c4ccccc4)nc4ccc(F)cn34)ccc2C(F)(F)F)n1", "pIC50": 8.42}
{"smiles_string": "Cn1ccc(-c2cc(C(=O)Nc3c(-c4ccccc4)nc4cc(Br)ccn34)ccc2C(F)(F)F)n1", "pIC50": 8.57}

Turning to the following compound.
The compound Cc1ccn(-c2cc(C(=O)Nc3c(-c4ccccc4)nc4cc(C(C)(C)O)ccn34)ccc2C(F)(F)F)n1 showed pIC50 equal to 7.85

* * *

target: human TrkA receptor (Homo sapiens, UniProt P04629); test: DiscoverX PathHunter TrkA functional assay (NGF-stimulated U2OS cells); settings: U2OS cells expressing human TrkA-PK, Shc1-EA and p75NTR; compound 1 h, then NGF at ~80% of maximal response for 3 h; luminescence
Cut-off 4 nM on IC50: below means 1 (yes), at or above means 0 (no).

Answered cases to consult:
{"compound": "CC(O)c1ccn2c(NC(=O)c3cc(-c4cc[nH]n4)c(C(F)(F)F)cc3F)c(-c3ccccc3)nc2c1 (single isomer, unassigned) [Compound 74]", "label": "1 (yes)"}
{"compound": "CNC(=O)NCc1ccn2c(NC(=O)c3ccc(C(F)(F)F)c(-c4ccn(C)n4)c3)c(-c3ccccc3)nc2c1 [Compound 81]", "label": "0 (no)"}
{"compound": "Cn1ccc(-c2cc(C(=O)Nc3c(-c4ccccc4)nc4ccc(C(C)(C)O)cn34)ccc2C(F)(F)F)n1 [Compound 36]", "label": "1 (yes)"}
{"compound": "Cn1ccc(-c2cc(C(=O)Nc3c(-c4ccccc4)[nH]c4ccc(C(=O)O)cc34)c(F)cc2C(F)(F)F)n1 [Compound 110]", "label": "1 (yes)"}
{"compound": "Cn1ccc(-c2cc(C(=O)Nc3c(-c4ccccc4)nc4ccccn34)c(C#N)cc2C(F)(F)F)n1 [Compound 33]", "label": "0 (no)"}

*Q* For Cc1coc(-c2cc(C(=O)Nc3c(-c4ccccc4)nc4cc(C(C)O)ccn34)ccc2C(F)(F)F)n1 (single isomer, unassigned) [Compound 61] , is the recorded IC50 below the cut-off of 4 nM?
*A* 1 (yes)

*Q* For Cc1coc(-c2cc(C(=O)Nc3c(-c4ccccc4)nc4cc(C(C)(C)O)ccn34)ccc2C(F)(F)F)n1 [Compound 46] , is the recorded IC50 below the cut-off of 4 nM?
*A* 1 (yes)

*Q* For COC1CN(Cc2ccn3c(NC(=O)c4ccc(C(F)(F)F)c(-c5ccn(C)n5)c4)c(-c4ccccc4)nc3c2)C1 [Compound 45] , is the recorded IC50 below the cut-off of 4 nM?
*A* 0 (no)

* * *

Measured log10(IC50), listed per entry.
biological target: human TrkA receptor (Homo sapiens, UniProt P04629); experiment: DiscoverX PathHunter TrkA functional assay (NGF-stimulated U2OS cells); conditions: U2OS cells expressing human TrkA-PK, Shc1-EA and p75NTR; compound 1 h, then NGF at ~80% of maximal response for 3 h; luminescence
Heads up: the numbers are on a log10 scale; they represent IC50 in nM.

{"compound": "CC(O)c1ccc2[nH]c(-c3ccccc3)c(NC(=O)c3cc(-c4ncccn4)c(C(F)(F)F)cc3F)c2c1 (single isomer, unassigned) [Compound 95]", "target_under_test": "human TrkA receptor (Homo sapiens, UniProt P04629)", "log10(IC50)": 0.69}
{"compound": "CC(O)c1ccc2nc(-c3ccccc3)c(NC(=O)c3ccc(C(F)(F)F)c(-c4ccn(C)n4)c3)n2c1 (single isomer, unassigned)", "target_under_test": "human TrkA receptor (Homo sapiens, UniProt P04629)", "log10(IC50)": 0.28}
{"compound": "CC(c1ccn2c(NC(=O)c3ccc(C(F)(F)F)c(-c4ccn(C)n4)c3)c(-c3ccccc3)nc2c1)N(C)C (single isomer, unassigned)", "target_under_test": "human TrkA receptor (Homo sapiens, UniProt P04629)", "log10(IC50)": 0.00}

Note to self: log10(IC50) of O=C(Nc1c(-c2ccccc2)nc2ccccn12)c1ccc(C(F)(F)F)c(-c2nc[nH]n2)c1 with human TrkA receptor (Homo sapiens, UniProt P04629) was 1.76

Note to self: log10(IC50) of CC(c1ccn2c(NC(=O)c3cc(-c4ccn(C)n4)c(C(F)(F)F)cc3F)c(-c3ccccc3)nc2c1)N(C)C (single isomer, unassigned) with human TrkA receptor (Homo sapiens, UniProt P04629) was 0.54

Note to self: log10(IC50) of Cn1ccc(-c2cc(C(=O)Nc3c(-c4ccccc4)nn4cc(C#N)ccc34)c(F)cc2C(F)(F)F)n1 with human TrkA receptor (Homo sapiens, UniProt P04629) was 3.00

* * *

target: human TrkA receptor (Homo sapiens); experiment: DiscoverX PathHunter TrkA functional assay (NGF-stimulated U2OS cells); conditions: U2OS cells expressing human TrkA-PK, Shc1-EA and p75NTR; compound 1 h, then NGF at ~80% of maximal response for 3 h; luminescence
Measured IC50, listed per entry.
Respond with the bare value in nM.

Note to self: IC50 of Cn1ccc(-c2cc(C(=O)Nc3c(-c4ccccn4)nc4ccccn34)ccc2C(F)(F)F)n1 with human TrkA receptor (Homo sapiens) was 12

Note to self: IC50 of COC(=O)NCc1ccn2c(NC(=O)c3ccc(C(F)(F)F)c(-c4ccn(C)n4)c3)c(-c3ccccc3)nc2c1 with human TrkA receptor (Homo sapiens) was 0.77

Note to self: IC50 of Cn1ccc(-c2cc(C(=O)Nc3c(-c4ccccc4)nc4ccccn34)c(Cl)cc2C(F)(F)F)n1 with human TrkA receptor (Homo sapiens) was 0.73

* * *

Measured pIC50, listed per entry.
molecular target: human TrkA receptor (Homo sapiens, UniProt P04629); assay: DiscoverX PathHunter TrkA functional assay (NGF-stimulated U2OS cells); details: U2OS cells expressing human TrkA-PK, Shc1-EA and p75NTR; compound 1 h, then NGF at ~80% of maximal response for 3 h; luminescence
API: returns pIC50 as number; meaning -log10 of concentration in mol/L.

The molecule CC(O)c1ccn2nc(-c3ccccc3)c(NC(=O)c3cc(-c4ccn(C)n4)c(C(F)(F)F)cc3F)c2c1 (single isomer, unassigned) [Compound 107] showed pIC50 equal to 9.07

The molecule Cn1ccc(-c2cc(C(=O)Nc3c(-c4ccccc4)nc4cc(C5(O)CC5)ccn34)ccc2C(F)(F)F)n1 showed pIC50 equal to 8.47

The molecule Cn1ccc(-c2cc(C(=O)Nc3c(-c4ccccc4)nc4ccc(CO)cn34)ccc2C(F)(F)F)n1 showed pIC50 equal to 8.74

The molecule Cn1ccc(-c2cc(C(=O)Nc3c(-c4ccccc4)nc4cccnn34)ccc2C(F)(F)F)n1 showed pIC50 equal to 8.41

The molecule Cc1coc(-c2cc(C(=O)Nc3c(-c4ccccc4)nc4cc(C(C)O)ccn34)ccc2C(F)(F)F)n1 (single isomer, unassigned) [Compound 62] showed pIC50 equal to 8.82

The molecule N#Cc1ccc2[nH]c(-c3ccccc3)c(NC(=O)c3cc(-c4ncccn4)c(C(F)(F)F)cc3F)c2c1 showed pIC50 equal to 8.59

The molecule Cc1ccc(C(=O)Nc2c(-c3ccccc3)nc3ccccn23)cc1-c1ccn(C)n1 showed pIC50 equal to 7.59

The molecule O=C(Nc1c(-c2ccccc2)nc2ccccn12)c1cc(-c2ncccn2)c(Cl)cc1F showed pIC50 equal to 7.40

The molecule Cc1cc(C(F)(F)F)c(-c2ccn(C)n2)cc1C(=O)Nc1c(-c2ccccc2)nc2cc(C(C)(C)O)ccn12 showed pIC50 equal to 8.35

The molecule Cn1ccc(-c2cc(C(=O)Nc3c(-c4ccccc4)nc4cc(CCO)ccn34)ccc2C(F)(F)F)n1 showed pIC50 equal to 8.68

The molecule CC(O)c1ccc2[nH]c(-c3ccccc3)c(NC(=O)c3cc(-c4ncccn4)c(C(F)(F)F)cc3F)c2c1 (single isomer, unassigned) [Compound 94] showed pIC50 equal to 8.19

The molecule Cn1ccc(-c2cc(C(=O)Nc3c(-c4ccccc4)nc4ncccn34)ccc2C(F)(F)F)n1 showed pIC50 equal to 8.23

The molecule Cn1ccc(-c2cc(C(=O)Nc3c(-c4ccccc4)nn4ccc(C(C)(C)O)cc34)ccc2C(F)(F)F)n1 showed pIC50 equal to 8.17

The molecule Cn1ccc(-c2cc(C(=O)Nc3c(-c4ccccc4)nc4ccccn34)c(F)cc2C(F)(F)F)n1 showed pIC50 equal to 9.31
